TEST_PROTOCOL: logP determination by HPLC (EEC Directive 79/831 Annex V.A8)
Type: physicochemical
STUDY_CONDITIONS: reversed-phase HPLC column (C 18), pH 2.3, reversed-phase column (C 18), 43° C.
Please provide measured chromatographic logP for the entries that follow.

{"COMPOUND": "Clc1ccc(C2=NNCC2n2cc(Cl)cn2)cc1 (centres unmarked)", "chromatographic logP": 2.64}

Consider the record given below.
Entry under test: N#CCN(C(=O)N1CC(n2cc(Cl)cn2)C(c2ccc(Cl)cc2)=N1)c1ccc(Cl)cc1 (centres unmarked) . Its chromatographic logP was 3.94
